These data points were gathered from patent US8598132B2.

# Study target: JAK2 (Homo sapiens, UniProt O60674)
# Sequence (O60674 whole entry, species assumed): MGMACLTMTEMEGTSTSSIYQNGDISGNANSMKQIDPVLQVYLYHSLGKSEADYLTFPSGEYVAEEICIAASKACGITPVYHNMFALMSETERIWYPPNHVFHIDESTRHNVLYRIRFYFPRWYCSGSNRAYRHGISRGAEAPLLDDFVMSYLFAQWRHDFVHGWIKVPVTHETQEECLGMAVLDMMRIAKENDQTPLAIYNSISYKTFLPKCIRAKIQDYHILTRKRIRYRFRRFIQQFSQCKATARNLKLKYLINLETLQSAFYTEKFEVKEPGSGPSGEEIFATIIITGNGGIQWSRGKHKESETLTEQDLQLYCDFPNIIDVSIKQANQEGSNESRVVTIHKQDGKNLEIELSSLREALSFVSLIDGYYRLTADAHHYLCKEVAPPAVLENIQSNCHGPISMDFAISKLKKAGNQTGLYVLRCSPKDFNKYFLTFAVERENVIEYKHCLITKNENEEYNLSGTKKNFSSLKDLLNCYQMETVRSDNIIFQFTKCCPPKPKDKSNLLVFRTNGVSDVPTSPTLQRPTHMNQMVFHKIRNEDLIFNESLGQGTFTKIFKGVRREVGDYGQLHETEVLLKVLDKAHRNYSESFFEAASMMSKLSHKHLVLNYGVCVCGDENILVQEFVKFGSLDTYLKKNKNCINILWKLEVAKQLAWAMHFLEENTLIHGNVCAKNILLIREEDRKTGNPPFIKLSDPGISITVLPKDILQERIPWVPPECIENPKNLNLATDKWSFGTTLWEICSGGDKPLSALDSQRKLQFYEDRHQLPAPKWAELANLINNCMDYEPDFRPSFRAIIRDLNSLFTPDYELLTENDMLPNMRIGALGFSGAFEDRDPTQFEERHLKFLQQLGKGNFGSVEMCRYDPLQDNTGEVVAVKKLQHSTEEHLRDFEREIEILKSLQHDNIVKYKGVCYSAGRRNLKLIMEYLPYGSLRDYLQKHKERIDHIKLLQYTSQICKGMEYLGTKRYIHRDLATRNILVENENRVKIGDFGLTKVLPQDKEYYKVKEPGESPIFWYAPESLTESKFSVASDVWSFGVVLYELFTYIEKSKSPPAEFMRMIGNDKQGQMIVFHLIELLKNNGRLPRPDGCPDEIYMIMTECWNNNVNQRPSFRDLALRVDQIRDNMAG
# Test summary: LabChip (Caliper) kinase assay, JAK2
# Format: biochemical
# Condition set: JAK2; compound at 10 nM; read-out: remaining kinase activity (in %) / percentage of inhibition
Property measured: inhibition at 0.01 µM (%)
Return type: number; implicit unit %.

Worked cases, answers included:
Molecule: C[C@H]1O[C@@H](n2c3ccccc3c3c4c(c5c6ccccc6[nH]c5c32)CNC4=O)C[C@@H](O)[C@@H]1O [formula (XV), N^13-1′-β-D-olivosyl-k252c]
Uom: %
inhibition at 0.01 µM: 37

Molecule: C[C@@H]1O[C@@H](n2c3ccccc3c3c4c(c5c6ccccc6[nH]c5c32)CNC4=O)C[C@H](O)[C@H]1O [formula (XIII), N^13-1′-β-L-olivosyl-k252c]
Uom: %
inhibition at 0.01 µM: 14

Alright, here's another molecule for you.
// query Find the recorded inhibition at 0.01 µM belonging to C[C@@H]1O[C@@H](n2c3ccccc3c3c4c(c5c6ccccc6[nH]c5c32)C(=O)NC4=O)[C@H](O)[C@H](O)[C@H]1O and report it.
// result -3
